Target: T1, APC2257-AA
T1 chain: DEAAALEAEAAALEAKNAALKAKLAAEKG
Assay: two-hybrid library CCmax;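 note: natural log of median RNA to DNA barcode read ratio; higher means stronger binding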
Details: mean of both orientations
Readout Kind: interaction score

Binder	Readout Kind	Observed Result
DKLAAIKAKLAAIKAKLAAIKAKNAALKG [APC1115-AA]	interaction score	-1.42
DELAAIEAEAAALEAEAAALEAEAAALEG [APC222-AA]	interaction score	-1.71
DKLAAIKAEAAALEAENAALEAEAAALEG [APC1242-AA]	interaction score	-1.45
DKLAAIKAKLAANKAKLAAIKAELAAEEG [APC1916-AA]	interaction score	-1.73
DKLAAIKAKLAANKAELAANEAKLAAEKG [APC1987-AA]	interaction score	-1.35
